System: 186277-243-T-J2-PDC spheroids with HUVEC/MSC, viability
Experiment: Anticancer human tumor 186277-243-T-J2-PDC patient-derived colon adenocarcinoma cell line growth inhibition [CLK]; active means viability on the fitted dose curve at most 10% of control; inactive means the rest
Conditions: second compound 10 µM; first compound 0.316 µM
From the text: A high-throughput screen of multi-cell type tumor spheroids was designed to identify active combinations of […] and targeted small molecules. Complex spheroids include a stromal component modeled by human endothelial cells (HUVEC) and fibroblasts modeled by human mesenchymal stem cells (MSCs). […] Compounds. […] If the clinical Cmax for an agent had not been determined, the highest concentration tested was 10 microM. […]
Labels: YES (active), NO (inactive)

molecule="Nc1ccn(C2OC(CO)C(O)C2(F)F)c(=O)n1 (stereo not given) + CN1CCN(c2cc(C(=O)Nc3cc4cc(-c5cnn(C)c5)ccc4cn3)ccn2)CC1" qualitative_label=YES
molecule="O=C(c1cc(Cc2n[nH]c(=O)c3ccccc23)ccc1F)N1CCN(C(=O)C2CC2)CC1 + CN1CCN(c2cc(C(=O)Nc3cc4cc(-c5cnn(C)c5)ccc4cn3)ccn2)CC1" qualitative_label=YES
molecule="CC1(C)CCC(CN2CCN(c3ccc(C(=O)NS(=O)(=O)c4ccc(NCC5CCOCC5)c([N+](=O)[O-])c4)c(Oc4cnc5[nH]ccc5c4)c3)CC2)=C(c2ccc(Cl)cc2)C1 + CNC(=O)c1ccc(Nc2nc(OC3CCCC3)c3c(-c4ccc5nc(C)oc5c4)c[nH]c3n2)c(OC)c1" qualitative_label=NO
molecule="CC1(C)CCC(CN2CCN(c3ccc(C(=O)NS(=O)(=O)c4ccc(NCC5CCOCC5)c([N+](=O)[O-])c4)c(Oc4cnc5[nH]ccc5c4)c3)CC2)=C(c2ccc(Cl)cc2)C1 + CN1CCN(c2cc(C(=O)Nc3cc4cc(-c5cnn(C)c5)ccc4cn3)ccn2)CC1" qualitative_label=YES
molecule="C#Cc1c(F)ccc2cc(O)cc(-c3ncc4c(N5CC6CCC(C5)N6)nc(OCC56CCCN5CC(F)C6)nc4c3F)c12 (stereo not given) + CNC(=O)c1ccc(Nc2nc(OC3CCCC3)c3c(-c4ccc5nc(C)oc5c4)c[nH]c3n2)c(OC)c1" qualitative_label=YES

---

system: 186277-243-T-J2-PDC spheroids with HUVEC/MSC, viability; experiment: Anticancer human tumor 186277-243-T-J2-PDC cell line growth inhibition [CLK]; settings: curve of first compound; second compound 1 µM;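 further: compound exposure lasted seven days before readout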
pIC50: −log10 of the molar value.
# pIC50 per entry
property label: pIC50

compound="CC(CO)NC(=O)c1cc(-c2ccc(Cl)cc2)nn(-c2cnn(C)c2)c1=O (stereo unspecified) + CNC(=O)c1ccc(Nc2nc(OC3CCCC3)c3c(-c4ccc5nc(C)oc5c4)c[nH]c3n2)c(OC)c1" target="186277-243-T-J2-PDC spheroids with HUVEC/MSC, viability" reported_measurement="> 7.50"
compound="Nc1ccccc1NC(=O)c1ccc(CNC(=O)OCc2cccnc2)cc1 + CNC(=O)c1ccc(Nc2nc(OC3CCCC3)c3c(-c4ccc5nc(C)oc5c4)c[nH]c3n2)c(OC)c1" target="186277-243-T-J2-PDC spheroids with HUVEC/MSC, viability" reported_measurement=7.50
compound="CCCS(=O)(=O)Nc1ccc(F)c(C(=O)c2c[nH]c3ncc(-c4ccc(Cl)cc4)cc23)c1F + CN1CCN(c2cc(C(=O)Nc3cc4cc(-c5cnn(C)c5)ccc4cn3)ccn2)CC1" target="186277-243-T-J2-PDC spheroids with HUVEC/MSC, viability" reported_measurement="> 7.50"
compound="C=C(F)C(=O)N1CCN(c2nc(OCC3CCCN3C)nc3c2CCN(c2cccc4cccc(Cl)c24)C3)CC1CC#N (stereo unspecified) + CN1CCN(c2cc(C(=O)Nc3cc4cc(-c5cnn(C)c5)ccc4cn3)ccn2)CC1" target="186277-243-T-J2-PDC spheroids with HUVEC/MSC, viability" reported_measurement="> 7.50"
compound="COc1c(OCCCN2CCOCC2)ccc2c3n(c(=NC(=O)c4cnc(N)nc4)nc12)CCN3 + CN1CCN(c2cc(C(=O)Nc3cc4cc(-c5cnn(C)c5)ccc4cn3)ccn2)CC1" target="186277-243-T-J2-PDC spheroids with HUVEC/MSC, viability" reported_measurement="> 8.50"
compound="CC(=O)O[C@H]1C(=O)[C@@]2(C)[C@H]([C@H](OC(=O)c3ccccc3)[C@]3(O)C[C@H](OC(=O)[C@H](O)[C@@H](NC(=O)c4ccccc4)c4ccccc4)C(C)=C1C3(C)C)[C@]1(OC(C)=O)CO[C@@H]1C[C@@H]2O + CNC(=O)c1ccc(Nc2nc(OC3CCCC3)c3c(-c4ccc5nc(C)oc5c4)c[nH]c3n2)c(OC)c1" target="186277-243-T-J2-PDC spheroids with HUVEC/MSC, viability" reported_measurement="> 7.50"
compound="CC(C)CC(NC(=O)C(Cc1ccccc1)NC(=O)c1cnccn1)B(O)O (stereo unspecified) + CNC(=O)c1ccc(Nc2nc(OC3CCCC3)c3c(-c4ccc5nc(C)oc5c4)c[nH]c3n2)c(OC)c1" target="186277-243-T-J2-PDC spheroids with HUVEC/MSC, viability" reported_measurement="> 9.02"
compound="COc1ccc([C@@H](O)c2cc(-c3ncnc4cc(N5CCOCC5)ccc34)c(F)cc2Cl)nn1 + CNC(=O)c1ccc(Nc2nc(OC3CCCC3)c3c(-c4ccc5nc(C)oc5c4)c[nH]c3n2)c(OC)c1" target="186277-243-T-J2-PDC spheroids with HUVEC/MSC, viability" reported_measurement="> 7.50"
compound="Nc1ccn(C2OC(CO)C(O)C2(F)F)c(=O)n1 (stereo unspecified) + CN1CCN(c2cc(C(=O)Nc3cc4cc(-c5cnn(C)c5)ccc4cn3)ccn2)CC1" target="186277-243-T-J2-PDC spheroids with HUVEC/MSC, viability" reported_measurement="> 7.50"
compound="CCN1CCN(Cc2ccc(Nc3ncc(F)c(-c4cc(F)c5nc(C)n(C(C)C)c5c4)n3)nc2)CC1 + CN1CCN(c2cc(C(=O)Nc3cc4cc(-c5cnn(C)c5)ccc4cn3)ccn2)CC1" target="186277-243-T-J2-PDC spheroids with HUVEC/MSC, viability" reported_measurement="> 8.50"
compound="NC(=O)C(=Cn1cnc(-c2cc(C(F)(F)F)cc(C(F)(F)F)c2)n1)c1cncnc1 + CN1CCN(c2cc(C(=O)Nc3cc4cc(-c5cnn(C)c5)ccc4cn3)ccn2)CC1" target="186277-243-T-J2-PDC spheroids with HUVEC/MSC, viability" reported_measurement="> 8.02"
compound="Cn1ncnc1[C@H]1c2n[nH]c(=O)c3cc(F)cc(c23)N[C@@H]1c1ccc(F)cc1 + CN1CCN(c2cc(C(=O)Nc3cc4cc(-c5cnn(C)c5)ccc4cn3)ccn2)CC1" target="186277-243-T-J2-PDC spheroids with HUVEC/MSC, viability" reported_measurement="> 9.50"
compound="NC(=O)C(=Cn1cnc(-c2cc(C(F)(F)F)cc(C(F)(F)F)c2)n1)c1cncnc1 + CNC(=O)c1ccc(Nc2nc(OC3CCCC3)c3c(-c4ccc5nc(C)oc5c4)c[nH]c3n2)c(OC)c1" target="186277-243-T-J2-PDC spheroids with HUVEC/MSC, viability" reported_measurement="> 8.02"
compound="C#Cc1c(F)ccc2cc(O)cc(-c3ncc4c(N5CC6CCC(C5)N6)nc(OCC56CCCN5CC(F)C6)nc4c3F)c12 (stereo unspecified) + CNC(=O)c1ccc(Nc2nc(OC3CCCC3)c3c(-c4ccc5nc(C)oc5c4)c[nH]c3n2)c(OC)c1" target="186277-243-T-J2-PDC spheroids with HUVEC/MSC, viability" reported_measurement="> 7.50"
compound="CC(=O)O[C@H]1C(=O)[C@@]2(C)[C@H]([C@H](OC(=O)c3ccccc3)[C@]3(O)C[C@H](OC(=O)[C@H](O)[C@@H](NC(=O)c4ccccc4)c4ccccc4)C(C)=C1C3(C)C)[C@]1(OC(C)=O)CO[C@@H]1C[C@@H]2O + CN1CCN(c2cc(C(=O)Nc3cc4cc(-c5cnn(C)c5)ccc4cn3)ccn2)CC1" target="186277-243-T-J2-PDC spheroids with HUVEC/MSC, viability" reported_measurement="> 7.50"
compound="CCc1c2c(nc3ccc(O)cc13)-c1cc3c(c(=O)n1C2)COC(=O)[C@]3(O)CC + CN1CCN(c2cc(C(=O)Nc3cc4cc(-c5cnn(C)c5)ccc4cn3)ccn2)CC1" target="186277-243-T-J2-PDC spheroids with HUVEC/MSC, viability" reported_measurement="> 8.50"

These data points were gathered from PubChem BioAssay AID2060625.
